Origin of values: patent US12371454B2

# system-name: Kras and SOS1 (biotin-tagged human Kras loaded with GDP, His-tagged human SOS1) (Homo sapiens, UniProt P01116, G12D)
# Construct: made in house; host or cells: E. coli (stated for Kras only)
# Sequence (P01116 1-188 isoform P01116-2 G12D): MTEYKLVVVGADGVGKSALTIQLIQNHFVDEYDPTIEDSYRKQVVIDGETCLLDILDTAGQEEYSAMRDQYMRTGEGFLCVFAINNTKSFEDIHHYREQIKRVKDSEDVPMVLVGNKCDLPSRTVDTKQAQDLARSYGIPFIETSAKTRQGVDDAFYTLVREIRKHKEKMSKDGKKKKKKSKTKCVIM
# assay-overview: Protein-protein interaction inhibition between Kras and SOS1 (KrasGl2D-SOS PPI) using AlphaScreen
# Format: binding
# applied-conditions: AlphaScreen; biotin-tagged human Kras loaded with GDP, His-tagged human SOS1; read-out: KRAS G12D-SOS PPI IC50
Positions of bridges follow the written chain, without caps; N, C: chain ends. Non-standard residues stand in square brackets, D forms with d. Residues, ends and D or L forms follow the SMILES beside them. *: point of attachment. hPhe(3-Cl-4-CF3) = N[C@@H](CCc1ccc(C(F)(F)F)c(Cl)c1)C(=O)O; NMeNva(5,5-F2) = CN[C@@H](CCC(F)F)C(=O)O; NMeGly(cPent) = CN[C@H](C(=O)O)C1CCCC1; NMeCha = CN[C@@H](CC1CCCCC1)C(=O)O; NMeChg = CN[C@H](C(=O)O)C1CCCCC1; NMeD = CN[C@@H](CC(=O)O)C(=O)O; NMeL = CN[C@@H](CC(C)C)C(=O)O; NMeV = CN[C@H](C(=O)O)C(C)C; NMeA = CN[C@@H](C)C(=O)O; Piperidide = C1CCN(*)CC1; Ac5c = NC1(C(=O)O)CCCC1; Aze = O=C(O)[C@@H]1CCN1; Sar = CNCC(=O)O
Recorded IC50 values for a group of compounds are listed next.
State the result as a value with its unit after it.

compound	quantity-name	result
CC[C@H](C)[C@@H]1NC(=O)[C@H](CCC(F)F)N(C)C(=O)C[C@@H](C(=O)N2CCCCC2)N(C)C(=O)[C@H](C2CCCCC2)N(C)C(=O)C2(CCCC2)NC(=O)[C@@H]2CCCN2C(=O)[C@H](CCc2ccc(C(F)(F)F)c(Cl)c2)NC(=O)CN(C)C(=O)[C@H](CC2CCCCC2)N(C)C(=O)CN(C)C(=O)CN(C)C1=O [Compound 1700] ([NMeNva(5,5-F2)]I[Sar][Sar][NMeCha][Sar][hPhe(3-Cl-4-CF3)]P[Ac5c][NMeChg][NMeD]-Piperidide; lactam N-11)	IC50	0.66 nM

Consider the record given below.
So what does the record say about IC50 for CC[C@H](C)[C@@H]1NC(=O)[C@H](CC(C)C)N(C)C(=O)C[C@@H](C(=O)N2CCCCC2)N(C)C(=O)[C@H](C(C)C)N(C)C(=O)C2(CCCC2)NC(=O)[C@@H]2CCCN2C(=O)[C@H](CCc2ccc(C(F)(F)F)c(Cl)c2)NC(=O)CN(C)C(=O)[C@H](C2CCCC2)N(C)C(=O)[C@@H]2CCN2C(=O)[C@H](C)N(C)C1=O [Compound 1825] ([NMeL]I[NMeA][Aze][NMeGly(cPent)][Sar][hPhe(3-Cl-4-CF3)]P[Ac5c][NMeV][NMeD]-Piperidide; lactam N-11) ?
3.4 nM
